Kindly state EC50 for each of the entries shown.
Molecular target: Oxysterols receptor LXR-alpha (Homo sapiens, UniProt Q13133)
Sequence (Q13133 whole entry): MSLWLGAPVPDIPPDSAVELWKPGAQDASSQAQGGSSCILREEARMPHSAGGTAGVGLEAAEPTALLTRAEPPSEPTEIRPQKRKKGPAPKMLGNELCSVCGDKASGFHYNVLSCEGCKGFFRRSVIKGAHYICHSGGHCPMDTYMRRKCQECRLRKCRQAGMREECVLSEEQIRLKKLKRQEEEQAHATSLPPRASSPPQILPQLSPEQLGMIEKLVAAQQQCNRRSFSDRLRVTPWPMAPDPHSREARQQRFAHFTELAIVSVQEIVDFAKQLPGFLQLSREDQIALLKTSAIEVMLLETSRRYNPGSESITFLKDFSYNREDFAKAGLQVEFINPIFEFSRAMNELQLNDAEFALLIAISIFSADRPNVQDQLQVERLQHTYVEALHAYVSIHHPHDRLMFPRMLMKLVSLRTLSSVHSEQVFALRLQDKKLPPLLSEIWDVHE
Test: Agonist activity at human recombinant LXRalpha expressed in Huh7 cells by GAL4 transactivation assay
Record the result as a number with its unit.

QUERY: Recorded EC50 for Cc1cccc2c(-c3cccc(NCc4ccc(CC(=O)O)cc4)c3)c(Cc3ccccc3)cnc12 with Oxysterols receptor LXR-alpha (Homo sapiens, UniProt Q13133), please?
RESULT: 467 nM

QUERY: Would you kindly repeat that for O=C(O)Cc1ccc(CNc2cccc(-c3c(Cc4ccccc4)cnc4c(Cl)cccc34)c2)cc1 ?
RESULT: 121 nM

###

Target: UniProt P55055
Sequence (P55055 whole entry): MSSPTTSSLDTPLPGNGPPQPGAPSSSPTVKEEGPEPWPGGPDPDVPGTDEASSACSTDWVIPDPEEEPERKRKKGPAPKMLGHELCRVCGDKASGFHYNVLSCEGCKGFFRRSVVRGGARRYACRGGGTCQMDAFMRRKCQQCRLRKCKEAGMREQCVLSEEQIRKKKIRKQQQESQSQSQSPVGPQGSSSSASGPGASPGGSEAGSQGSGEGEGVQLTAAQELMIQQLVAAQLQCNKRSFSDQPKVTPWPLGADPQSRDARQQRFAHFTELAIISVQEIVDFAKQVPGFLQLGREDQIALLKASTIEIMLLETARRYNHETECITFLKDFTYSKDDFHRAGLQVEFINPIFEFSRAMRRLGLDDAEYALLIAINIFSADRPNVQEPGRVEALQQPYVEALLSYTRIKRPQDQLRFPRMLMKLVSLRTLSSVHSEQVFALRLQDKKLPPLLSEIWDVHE
reported.property: EC50
Record the result as a number with its unit.

QUERY: Which measured EC50 value corresponds to Cc1cccc2c(-c3cccc(NCc4ccc(CC(=O)O)cc4)c3)c(Cc3ccccc3)cnc12 ?
RESULT: 90 nM

QUERY: Would you kindly repeat that for O=C(O)Cc1ccc(CNc2cccc(-c3c(Cc4ccccc4)cnc4c(Cl)cccc34)c2)cc1 ?
RESULT: 23 nM

###

Kindly state clearance for each of the entries shown.
Assay: Clearance in C57BL/6 mouse at 1 mg/kg, iv
Assay type: ADME, organism-based
Design: dose 1 mg/kg, route intravenous
Conditions: in vivo
The response must be a number in mL/min/kg with no trailing unit.

QUERY: Which measured clearance value corresponds to O=C(O)Cc1ccc(CNc2cccc(-c3c(Cc4ccccc4)cnc4c(Cl)cccc34)c2)cc1 ?
RESULT: 37

QUERY: Would you kindly repeat that for Cc1cccc2c(-c3cccc(NCc4ccc(CC(=O)O)cc4)c3)c(Cc3ccccc3)cnc12 ?
RESULT: 25

###

Biological target: Peroxisome proliferator-activated receptor delta (Homo sapiens)
Sequence (Q03181 whole entry): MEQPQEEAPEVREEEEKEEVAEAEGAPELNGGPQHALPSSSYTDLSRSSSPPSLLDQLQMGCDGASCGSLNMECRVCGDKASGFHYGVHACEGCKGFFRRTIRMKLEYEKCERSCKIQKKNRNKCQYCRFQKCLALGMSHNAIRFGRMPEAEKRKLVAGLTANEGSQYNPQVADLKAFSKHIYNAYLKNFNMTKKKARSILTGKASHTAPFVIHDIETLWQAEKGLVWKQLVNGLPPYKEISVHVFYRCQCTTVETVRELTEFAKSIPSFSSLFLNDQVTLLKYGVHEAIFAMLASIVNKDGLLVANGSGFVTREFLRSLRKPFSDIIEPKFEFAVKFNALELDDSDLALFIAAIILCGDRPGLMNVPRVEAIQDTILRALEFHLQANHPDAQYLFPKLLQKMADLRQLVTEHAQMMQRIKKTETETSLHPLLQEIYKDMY
Experiment: Agonist activity at human recombinant PPARdelta by GAL4 transactivation assay
reported.property: EC50 (nM)
The response must be a number in nM with no trailing unit.

QUERY: Which measured EC50 value corresponds to O=C(O)Cc1ccc(CNc2cccc(-c3c(Cc4ccccc4)cnc4c(Cl)cccc34)c2)cc1 ?
RESULT: 631

QUERY: Would you kindly repeat that for Cc1cccc2c(-c3cccc(NCc4ccc(CC(=O)O)cc4)c3)c(Cc3ccccc3)cnc12 ?
RESULT: 1970
